Sourced from ChEMBL document CHEMBL1961873

- measured_target: Homeodomain-interacting protein kinase 4 (Homo sapiens) (UniProt Q8NE63);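 note: values are mean percent inhibition of HIPK4 from the GSK PKIS kinase screen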
- Sequence (Q8NE63 whole entry): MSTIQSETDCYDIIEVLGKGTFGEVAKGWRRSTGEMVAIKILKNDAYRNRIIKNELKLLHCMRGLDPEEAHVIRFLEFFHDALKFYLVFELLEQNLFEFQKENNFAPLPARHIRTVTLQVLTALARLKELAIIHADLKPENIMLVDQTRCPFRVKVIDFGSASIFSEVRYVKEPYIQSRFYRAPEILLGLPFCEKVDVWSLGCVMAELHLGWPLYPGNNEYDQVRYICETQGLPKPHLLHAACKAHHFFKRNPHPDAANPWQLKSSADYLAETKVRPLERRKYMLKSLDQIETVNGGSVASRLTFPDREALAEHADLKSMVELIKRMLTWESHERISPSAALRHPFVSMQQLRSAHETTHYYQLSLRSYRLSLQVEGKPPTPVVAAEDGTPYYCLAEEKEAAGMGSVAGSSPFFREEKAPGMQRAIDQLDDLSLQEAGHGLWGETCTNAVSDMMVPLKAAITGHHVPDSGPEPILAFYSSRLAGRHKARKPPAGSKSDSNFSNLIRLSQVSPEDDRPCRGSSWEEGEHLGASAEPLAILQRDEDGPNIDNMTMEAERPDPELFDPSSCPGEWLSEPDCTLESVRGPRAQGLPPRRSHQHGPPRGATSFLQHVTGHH
- assay_context: at 1 µM
Recorded inhibition values for a group of molecules are listed next.

structure_string | inhibition / %
N#Cc1c(NC(=O)c2cccc3ccccc23)sc2c1CCCC2 | 2.45
COC(=O)Nc1nc2cc(Oc3cccc(NC(=O)Nc4cc(C(F)(F)F)ccc4F)c3)ccc2[nH]1 | 11.4
COc1ccccc1Nc1ncc(-c2ccccc2)o1 | 0.15
NS(=O)(=O)c1ccc(N/N=C2\C(=O)Nc3ccc(C(=O)NCCc4c[nH]cn4)cc32)cc1 | 20.2
Fc1cccc(COc2ccc(Nc3ncnc4sc(-c5cccs5)cc34)cc2Cl)c1 | 1.31

====

- Tested on: Epidermal growth factor receptor (Homo sapiens), P00533 [L858R,T790M]
- Sequence (P00533 whole entry T790M/L858R, looked up): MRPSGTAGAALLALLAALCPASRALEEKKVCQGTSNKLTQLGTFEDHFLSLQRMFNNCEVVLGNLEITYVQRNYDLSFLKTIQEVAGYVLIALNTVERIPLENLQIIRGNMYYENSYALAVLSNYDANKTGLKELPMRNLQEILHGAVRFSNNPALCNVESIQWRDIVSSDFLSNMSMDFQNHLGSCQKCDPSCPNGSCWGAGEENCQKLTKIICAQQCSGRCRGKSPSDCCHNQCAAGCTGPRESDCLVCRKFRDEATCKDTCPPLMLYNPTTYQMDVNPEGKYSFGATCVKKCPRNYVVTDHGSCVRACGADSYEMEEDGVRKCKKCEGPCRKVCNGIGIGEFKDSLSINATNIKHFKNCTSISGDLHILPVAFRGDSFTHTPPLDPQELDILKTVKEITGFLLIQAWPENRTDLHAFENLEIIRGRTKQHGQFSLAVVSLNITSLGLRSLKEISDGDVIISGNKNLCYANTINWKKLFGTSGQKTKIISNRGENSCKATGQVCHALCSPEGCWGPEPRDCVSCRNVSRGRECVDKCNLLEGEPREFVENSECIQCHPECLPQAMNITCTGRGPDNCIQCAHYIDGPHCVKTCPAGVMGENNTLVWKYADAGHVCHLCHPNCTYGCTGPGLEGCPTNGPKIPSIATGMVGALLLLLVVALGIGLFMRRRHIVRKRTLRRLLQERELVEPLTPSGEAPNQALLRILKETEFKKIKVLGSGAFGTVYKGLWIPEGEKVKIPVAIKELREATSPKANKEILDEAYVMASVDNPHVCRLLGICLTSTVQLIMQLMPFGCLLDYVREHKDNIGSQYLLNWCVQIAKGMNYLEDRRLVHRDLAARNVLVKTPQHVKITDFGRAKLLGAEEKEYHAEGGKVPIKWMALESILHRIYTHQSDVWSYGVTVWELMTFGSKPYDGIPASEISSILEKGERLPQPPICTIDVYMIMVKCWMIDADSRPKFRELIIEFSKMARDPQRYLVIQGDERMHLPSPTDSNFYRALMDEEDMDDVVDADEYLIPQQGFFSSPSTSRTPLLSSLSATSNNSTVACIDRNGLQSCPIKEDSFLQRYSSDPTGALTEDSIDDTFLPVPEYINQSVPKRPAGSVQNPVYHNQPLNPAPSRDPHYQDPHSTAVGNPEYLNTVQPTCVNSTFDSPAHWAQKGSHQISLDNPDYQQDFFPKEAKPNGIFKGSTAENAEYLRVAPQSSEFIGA
- assay_context: at 0.1 µM
Recorded inhibition, one value per entry.
quantity_measured: inhibition

structure_string | obs_value
NS(=O)(=O)c1cccc(-c2ccc3c(NC(=O)C4CC4)n[nH]c3c2)c1 | -1.29%
COc1cc2ncn(-c3cc(OCc4ccccc4Cl)c(C(N)=O)s3)c2cc1OC | -1.12%
NS(=O)(=O)c1ccc(N/N=C2\C(=O)Nc3ccc(C(=O)NCCc4c[nH]cn4)cc32)cc1 | 3.11%
CCn1c(-c2nonc2N)nc2cnc(Oc3cccc(NC(=O)c4ccc(OCCN5CCOCC5)cc4)c3)cc21 | -0.63%
COc1cc(C)c(NC(=O)CN(C)C)cc1Nc1nc(Nc2cccc(F)c2C(N)=O)c2cc[nH]c2n1 | 14.3%
COC(=O)Nc1nc2cc(Oc3cccc(NC(=O)Nc4cc(C(F)(F)F)ccc4F)c3)ccc2[nH]1 | -3.25%
CS(=O)(=O)CCNCc1ccc(-c2ccc3ncnc(Nc4ccc(OCc5ccccc5)c(Cl)c4)c3c2)o1 | -1.01%

====

# inhibition per record follows
- measured_target: NUAK family SNF1-like kinase 1 (Homo sapiens) (UniProt O60285)
- Sequence (whole entry): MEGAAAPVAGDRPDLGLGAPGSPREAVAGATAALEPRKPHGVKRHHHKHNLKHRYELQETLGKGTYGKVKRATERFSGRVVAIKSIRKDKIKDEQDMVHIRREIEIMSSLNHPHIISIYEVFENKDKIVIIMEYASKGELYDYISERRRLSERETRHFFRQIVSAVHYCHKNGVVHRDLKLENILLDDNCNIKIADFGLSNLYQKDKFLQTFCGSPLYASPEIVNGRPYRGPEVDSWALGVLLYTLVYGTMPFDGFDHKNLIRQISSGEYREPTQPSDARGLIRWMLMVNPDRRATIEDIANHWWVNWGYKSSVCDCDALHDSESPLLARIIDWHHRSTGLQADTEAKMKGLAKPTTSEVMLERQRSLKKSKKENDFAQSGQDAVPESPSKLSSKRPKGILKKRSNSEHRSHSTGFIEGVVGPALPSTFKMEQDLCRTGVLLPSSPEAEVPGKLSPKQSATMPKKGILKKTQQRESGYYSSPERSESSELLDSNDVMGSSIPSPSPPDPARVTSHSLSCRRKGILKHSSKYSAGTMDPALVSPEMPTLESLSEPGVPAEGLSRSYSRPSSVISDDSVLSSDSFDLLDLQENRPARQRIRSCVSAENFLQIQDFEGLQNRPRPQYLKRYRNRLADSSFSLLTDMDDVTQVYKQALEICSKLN
- assay_context: at 1 µM
- Description: GSK_PKIS: ARK5 mean inhibition at 1 uM [Nanosyn]

compound | inhibition
COc1ccc2cc(-c3c(-c4ccncc4)nc(-c4ccc([S+](C)[O-])cc4)n3C)ccc2c1 (configuration not stated) | 2.13%
Cc1cc(O)cc(C)c1/C=C/c1cncc(-c2nn[nH]n2)c1 | 5.08%
COc1cc2ncn(-c3cc(OCc4ccccc4Cl)c(C(N)=O)s3)c2cc1OC | 58.6%
COc1ccc(COc2ccc(Cc3cnc(N)nc3N)cc2OC)cc1 | 3.71%
CS(=O)(=O)CCNCc1nc(-c2ccc3ncnc(Nc4ccc(F)c(Cl)c4)c3c2)cs1 | 2%
Nc1nc(-c2ccccn2)c(-c2ccc3ncccc3n2)s1 | 5.19%
Fc1cccc(COc2ccc(Nc3ncnc4sc(-c5cccs5)cc34)cc2Cl)c1 | 7.65%
